Cited source: paper PMC9046087

Molecular target: ADGRF1 (Homo sapiens, UniProt Q5T601, V732A)
Construct: Flag (N); expressed in transfected cells; host or cells: HEK293F
Experiment: BRET assay using TRUPATH biosensors, Gi activation of ADGRF1
Assay type: cell-based
Settings: ADGRF1 V732^ECL2A, n = 3
Ends that are not written are not given here.
MEASURED_ATTRIBUTE: EC50 (µM)

TSFSILMSPFVP [pF1] : 1.95

* * *

Target: ADGRF1 (Homo sapiens, UniProt Q5T601, F747A)
Construct: Flag (N); expressed in transfected cells; host or cells: HEK293F
Test: BRET assay using TRUPATH biosensors, Gi activation of ADGRF1
Format: cell-based
Settings: ADGRF1 F747^5.36bA, n = 3
Ends that are not written are not given here.
MEASURED_ATTRIBUTE: EC50 (nM)

TSFSILMSPFVP [pF1] : 1220

* * *

Quick reference for EC50 among some sequences
Target: ADGRD1 (Homo sapiens, UniProt Q6QNK2)
Construct: Flag (N); expressed in transfected cells; host or cells: HEK293F
Sequence (Q6QNK2 26-874): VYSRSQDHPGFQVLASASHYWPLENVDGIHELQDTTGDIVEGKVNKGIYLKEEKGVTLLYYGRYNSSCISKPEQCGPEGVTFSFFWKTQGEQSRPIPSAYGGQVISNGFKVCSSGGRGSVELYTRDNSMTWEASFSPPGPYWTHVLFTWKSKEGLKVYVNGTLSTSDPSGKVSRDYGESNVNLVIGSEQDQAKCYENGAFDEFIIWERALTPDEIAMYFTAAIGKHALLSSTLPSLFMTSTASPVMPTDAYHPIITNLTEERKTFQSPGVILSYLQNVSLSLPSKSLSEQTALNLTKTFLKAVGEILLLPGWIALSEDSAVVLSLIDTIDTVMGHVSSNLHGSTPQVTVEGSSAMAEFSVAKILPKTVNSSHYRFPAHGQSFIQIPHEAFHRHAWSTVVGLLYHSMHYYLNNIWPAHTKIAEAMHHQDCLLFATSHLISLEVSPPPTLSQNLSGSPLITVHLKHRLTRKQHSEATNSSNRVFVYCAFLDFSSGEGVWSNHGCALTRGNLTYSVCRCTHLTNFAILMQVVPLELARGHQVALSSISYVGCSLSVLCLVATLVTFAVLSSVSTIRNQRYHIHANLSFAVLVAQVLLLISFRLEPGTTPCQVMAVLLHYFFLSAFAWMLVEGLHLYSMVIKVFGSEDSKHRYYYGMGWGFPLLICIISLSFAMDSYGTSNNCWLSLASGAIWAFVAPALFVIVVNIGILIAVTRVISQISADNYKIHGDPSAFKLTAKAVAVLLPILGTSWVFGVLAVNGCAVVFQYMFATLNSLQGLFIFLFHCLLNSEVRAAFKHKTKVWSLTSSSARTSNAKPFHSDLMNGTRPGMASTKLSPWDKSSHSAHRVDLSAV
Test: BRET assay using TRUPATH biosensors, G protein activation of ADGRD1
Format: cell-based
Conditions: Gs; ADGRD1 WT; n = 3; read-out: pEC50 (mean ± s.e.m.) (converted)
Ends that are not written are not given here.
MEASURED_ATTRIBUTE: EC50 (nM)

TSFSILMSPFVP [pF1] : 1260
TNAAILMQVVPLE [pD1 (F547^S3A)] : 724
TNFAIAMQVVPLE [pD1 (L550^S6A)] : 166
TNFAILAQVVPLE [pD1 (M551^S7A)] : 263

* * *

Biological target: ADGRF1 (Homo sapiens, UniProt Q5T601, G702Y)
Construct: Flag (N); expressed in transfected cells; host or cells: HEK293F
Test: BRET assay using TRUPATH biosensors, Gi activation of ADGRF1
Type: cell-based
Conditions: ADGRF1 G702^4.45bY, n = 3
pEC50: −log10 of the molar value. Ends that are not written are not given here.
MEASURED_ATTRIBUTE: pEC50

TSFSILMSPFVP [pF1] : 5.93

* * *

Target: ADGRF1 (Homo sapiens, UniProt Q5T601, G831A)
Construct: Flag (N); expressed in transfected cells; host or cells: HEK293F
Test: BRET assay using TRUPATH biosensors, Gi activation of ADGRF1
Format: cell-based
Conditions: ADGRF1 G831^7.50bA, n = 3
Ends that are not written are not given here.
MEASURED_ATTRIBUTE: EC50

TSFSILMSPFVP [pF1] : 1040 nM

* * *

Target: ADGRF1 (Homo sapiens, UniProt Q5T601, G807W)
Construct: Flag (N); expressed in transfected cells; host or cells: HEK293F
Assay: BRET assay using TRUPATH biosensors, Gi activation of ADGRF1
Assay type: cell-based
Conditions: ADGRF1 G807^6.56bW, n = 3
pEC50: −log10 of the molar value. Ends that are not written are not given here.
MEASURED_ATTRIBUTE: pEC50

TSFSILMSPFVP [pF1] : 5.82

* * *

Molecular target: ADGRF1 (Homo sapiens, UniProt Q5T601, L764A)
Construct: Flag (N); expressed in transfected cells; host or cells: HEK293F
Sequence (Q5T601 20-910 L764A): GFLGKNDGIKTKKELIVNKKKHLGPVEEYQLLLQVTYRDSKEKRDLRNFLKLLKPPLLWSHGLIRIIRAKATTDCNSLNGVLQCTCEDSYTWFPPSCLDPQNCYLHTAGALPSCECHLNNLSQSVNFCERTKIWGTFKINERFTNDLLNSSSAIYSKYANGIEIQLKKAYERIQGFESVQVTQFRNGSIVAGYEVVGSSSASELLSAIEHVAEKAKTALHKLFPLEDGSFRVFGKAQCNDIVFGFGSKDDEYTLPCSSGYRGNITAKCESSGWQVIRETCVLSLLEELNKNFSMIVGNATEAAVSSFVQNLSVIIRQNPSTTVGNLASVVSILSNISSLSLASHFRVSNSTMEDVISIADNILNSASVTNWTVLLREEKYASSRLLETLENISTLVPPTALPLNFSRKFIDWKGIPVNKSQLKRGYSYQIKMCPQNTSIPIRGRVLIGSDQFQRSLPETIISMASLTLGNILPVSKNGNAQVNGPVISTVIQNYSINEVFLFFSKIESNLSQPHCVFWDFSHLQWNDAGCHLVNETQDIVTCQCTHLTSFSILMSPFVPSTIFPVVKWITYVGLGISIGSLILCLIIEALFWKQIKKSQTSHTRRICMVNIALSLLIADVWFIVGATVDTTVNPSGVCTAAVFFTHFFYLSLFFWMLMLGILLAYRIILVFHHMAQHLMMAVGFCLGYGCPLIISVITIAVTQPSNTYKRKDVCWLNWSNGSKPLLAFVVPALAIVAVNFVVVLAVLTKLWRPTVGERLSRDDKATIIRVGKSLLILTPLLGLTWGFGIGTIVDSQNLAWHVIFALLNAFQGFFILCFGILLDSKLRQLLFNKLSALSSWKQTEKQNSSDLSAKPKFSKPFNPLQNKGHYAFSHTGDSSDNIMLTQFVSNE
Test: BRET assay using TRUPATH biosensors, Gi activation of ADGRF1
Format: cell-based
Conditions: ADGRF1 L764^5.56bA, n = 3
Description: To study the synthetic stalk peptide-induced G protein activation of ADGRD1 and ADGRF1, a BRET assay using TRUPATH biosensors was conducted to measure the proximal interaction between RLuc8 fused to the Gα subunit and GFP2 fused to the Gγ subunit. The TRUPATH suite of biosensors was obtained from Addgene (Addgene kit no. 1000000163) as a gift from B. Roth, including GαsS-RLuc8, Gαi1-RLuc8, Gβ3 and Gγ9-GFP2 as previously described. […]
pEC50: −log10 of the molar value. Ends that are not written are not given here.
MEASURED_ATTRIBUTE: pEC50

TSFSILMSPFVP [pF1] : 5.89

* * *

Target: ADGRD1 (Homo sapiens)
Construct: Flag (N); expressed in transfected cells; host or cells: HEK293F
Sequence (Q6QNK2 26-874): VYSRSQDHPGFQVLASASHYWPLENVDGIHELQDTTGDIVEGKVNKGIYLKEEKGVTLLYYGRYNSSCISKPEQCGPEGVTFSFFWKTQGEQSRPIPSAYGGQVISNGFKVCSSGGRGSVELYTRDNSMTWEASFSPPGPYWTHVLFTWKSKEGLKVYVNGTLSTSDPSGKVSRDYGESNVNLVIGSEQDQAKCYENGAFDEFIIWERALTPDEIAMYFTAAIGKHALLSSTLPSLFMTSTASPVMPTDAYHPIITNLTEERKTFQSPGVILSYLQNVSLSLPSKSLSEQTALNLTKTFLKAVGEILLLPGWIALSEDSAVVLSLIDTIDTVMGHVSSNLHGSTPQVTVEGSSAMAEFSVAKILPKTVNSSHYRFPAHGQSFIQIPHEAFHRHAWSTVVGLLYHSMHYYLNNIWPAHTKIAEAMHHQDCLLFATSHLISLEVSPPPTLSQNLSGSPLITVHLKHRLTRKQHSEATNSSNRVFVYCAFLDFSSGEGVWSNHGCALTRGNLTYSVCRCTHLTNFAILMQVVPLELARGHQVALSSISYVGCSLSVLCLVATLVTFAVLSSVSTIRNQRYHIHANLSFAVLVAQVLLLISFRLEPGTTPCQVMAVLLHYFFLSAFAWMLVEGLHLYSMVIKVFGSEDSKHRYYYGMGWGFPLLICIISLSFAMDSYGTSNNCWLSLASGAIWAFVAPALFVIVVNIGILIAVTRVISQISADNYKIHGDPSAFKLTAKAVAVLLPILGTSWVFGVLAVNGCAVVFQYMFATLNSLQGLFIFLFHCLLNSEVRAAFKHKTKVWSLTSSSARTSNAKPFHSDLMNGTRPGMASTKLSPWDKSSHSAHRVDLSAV
Experiment: BRET assay using TRUPATH biosensors, G protein activation of ADGRD1
Format: cell-based
Details: Gs; ADGRD1 WT; n = 3
Protocol: To study the synthetic stalk peptide-induced G protein activation of ADGRD1 and ADGRF1, a BRET assay using TRUPATH biosensors was conducted to measure the proximal interaction between RLuc8 fused to the Gα subunit and GFP2 fused to the Gγ subunit. The TRUPATH suite of biosensors was obtained from Addgene (Addgene kit no. 1000000163) as a gift from B. Roth, including GαsS-RLuc8, Gαi1-RLuc8, Gβ3 and Gγ9-GFP2 as previously described. […]
Ends that are not written are not given here.
MEASURED_ATTRIBUTE: Emax (mean ± s.e.m.)

TNAAILMQVVPLE [pD1 (F547^S3A)] : 69 ± 13 % of WT
TNFAILAQVVPLE [pD1 (M551^S7A)] : 79 ± 10 % of WT
TSFSILMSPFVP [pF1] : 67 ± 12 % of WT
TNFAIAMQVVPLE [pD1 (L550^S6A)] : 53 ± 5 % of WT
